// data source = ChEMBL document CHEMBL1150817

In this section, each of the molecules is paired with its reported LC50.
- EXPERIMENT DESCRIPTION: Toxicity to Artemia salina
- Type: organism-based
- TEST CONDITIONS: in vivo
Response body: numeric value in ng/mL, unit text excluded.

MOLECULE	LC50 (ng/mL)
CCCCCCCCCCCCCC[C@H](O)[C@@H]1CC[C@@H](CCCCC[C@@H](O)[C@H](O)CC[C@@H](O)CC2=C[C@H](C)OC2=O)O1 [ANNOMOLIN]	9.4

Here's the next entry for you.
Query: Quick one: LC50 of CCCCCCCCCCCC/C=C\CC[C@@H](O)[C@H]1CC[C@H]([C@H](O)CCCC(O)CCCC[C@@H](O)CC2=C[C@H](C)OC2=O)O1 (some centres not stated) [ANNOCHERIMOLIN] ?
Result: 5.8
